# measured-on: Cytochrome P450 3A4 (Homo sapiens) (UniProt P08684)
# Sequence (P08684 whole entry, looked up): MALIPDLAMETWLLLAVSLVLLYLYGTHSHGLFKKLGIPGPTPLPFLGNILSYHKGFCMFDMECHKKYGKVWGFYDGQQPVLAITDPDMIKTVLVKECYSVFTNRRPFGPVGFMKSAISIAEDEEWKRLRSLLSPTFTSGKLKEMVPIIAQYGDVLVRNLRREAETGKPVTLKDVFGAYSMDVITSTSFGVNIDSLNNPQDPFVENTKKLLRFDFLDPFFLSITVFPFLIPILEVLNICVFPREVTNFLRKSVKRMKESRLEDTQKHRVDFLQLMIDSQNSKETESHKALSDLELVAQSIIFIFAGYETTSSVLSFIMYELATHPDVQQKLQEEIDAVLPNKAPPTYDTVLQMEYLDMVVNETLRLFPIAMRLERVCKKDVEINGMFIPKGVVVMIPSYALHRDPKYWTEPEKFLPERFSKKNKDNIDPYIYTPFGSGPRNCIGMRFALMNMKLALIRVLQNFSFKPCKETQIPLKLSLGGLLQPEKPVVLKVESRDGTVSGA
# test-name: qHTS Assay for Inhibitors and Substrates of Cytochrome P450 3A4 (AID 884); note: nearly all actives have a fitted effect of over 50% in size; note: potency is the fitted concentration of half-maximal effect
# test-context: recombinant CYP3A4, Luciferin-PPXE luminescence; series mostly up to 57.1 µM
Records with an inconclusive call do not appear. The source made the active and inactive calls. Calls come from the whole dose curve; as a rule, active = well fitted inhibition curve with a large enough effect; inconclusive = small, poorly fitted or top-dose-only effect; inactive = no such curve, though single readings can be large or run the other way.

molecule	Potency
COc1cc(OC)c2c(c1Cl)OC1(C2=O)C(O)=CC(=O)CC1C (configuration not stated)	inactive
CCOC(=O)c1c(C)cc(O)c(C)c1O	inactive
C/C(=C\CNc1ncnc2nc[nH]c12)CO	inactive
COc1ccc2c(c1)CCC1C2CC[C@@]2(C)C(O)CCC12 (some centres not stated)	inactive
CC(=O)OC1CC[C@]2(C)C(=CCC3C4CCC(C(C)CCCC(C)C)[C@]4(C)CCC32)C1 (some centres not stated)	inactive
COc1ccc2c(c1)OCC(Cc1ccc(O)c(OC)c1)C2=O (configuration not stated)	2000 nM (active)
CC1CCC2(C(=O)O)CCC3(C)C(=CCC4C3(C)CCC3[C@@]4(C)CC(O)C(O)[C@@]3(C)CO)C2C1C (some centres not stated)	inactive
COc1cc2cc3c4cc(OC)c(OC)cc4cc[n+]3c(C)c2cc1OC	15800 nM (active)
NC1=NCCN1CC(=O)O	inactive
CC1(O)CC2C(CC1O)C2(C)C (configuration not stated)	inactive
CNc1ccccc1C(=O)N1CCc2c([nH]c3ccccc23)C1=O	1000 nM (active)
O=C(O)c1ccc2c(c1)OCO2	inactive

Values were extracted from PubChem BioAssay (NCATS).
